- Tested on: RXF 393 renal
- procedure_summary: NCI tumour cell line growth inhibition, 48 h
Can you tell me TGI for the items I'm about to list?
Use µM as the unit, but write only the number.

Lab book: TGI of "CN(C)CCCCC(C(=O)CBr)(c1ccccc1)c1ccccc1" noted as 4.06

Lab note: measured TGI of "COc1cc(/C=N\c2nc(-c3ccc(NS(=O)(=O)c4ccc(Cl)c(OC)c4)cc3)cs2)ccc1O" was 80.8

For record "Nc1ccc(Oc2ccc(C3(c4ccc(Oc5ccc(N)cc5)cc4)C4CC5CC(C4)CC3C5)cc2)cc1" the listed TGI is 20.9

----------
I'd appreciate it if you could supply GI50 values for the items below.
- System: UACC-257 melanoma
- procedure_summary: NCI tumour cell line growth inhibition, 48 h

// recorded GI50 for "CCCCCCn1c(-c2ccc(C(=O)O/N=C(\N)c3ccc4ccccc4c3)cc2)nc(-c2ccccc2)c1-c1ccccc1" : > 100 µM

Field GI50 (entry "CCCCCCCCCCCCSC1=C(Cl)C(=O)C(OC)=C(OC)C1=O" ) reads 3.62 µM

Record "CN(C)CCCCC(C(=O)CBr)(c1ccccc1)c1ccccc1" , field GI50: 1.96 µM

Lab book: GI50 of "COc1cccc(/C=N/NC(=O)c2ccccc2N2CCCC2)c1O" noted as 3.05 µM

The reported value for "COc1ccc(Sc2nc3cc(N)cc(N)c3nc2-c2ccccc2)cc1" in terms of GI50 is 43.2 µM

For record "Cn1nc(C(F)(F)F)cc1-c1c[nH]c(OCc2ccc(Cl)cc2)c(-c2ccc(Cl)c(C(F)(F)F)c2)c1=O" the listed GI50 is 0.919 µM

// GI50 lookup, compound = O=[N+]([O-])c1ccc(C2CC(c3ccccc3)=Nc3ccccc3S2)cc1 (stereo not drawn) , result: > 100 µM

Entry "COc1cc(/C(=C2/O[C@@H]([C@H]3COC(C)(C)O3)[C@H]3OC(C)(C)O[C@@H]23)c2ccc3ccccc3c2)cc(OC)c1OC" — recorded GI50 = 4.28 µM

Per the record, "COc1ccc2c(c1)CC[C@@H]1[C@@H]2CC[C@]2(C)c3c(cc(C(=O)O)c4sccc34)C[C@@H]12" has GI50 of 26.7 µM

Given item "COc1ccc2c(O)c(/C=C3\N=Nc4ccccc43)oc2c1C[C@@H]1CCNC[C@H]1F" , the value recorded as its GI50 is 16.2 µM

get_value(item= "C=C1C(=O)O[C@H]2C[C@@H]1CC/C(C)=C/CC/C(C)=C/CC[C@@]2(C)O" , readout=GI50) returns > 100 µM

Entry "C[C@]12CC[C@@H]3c4cc(O)c(O)cc4CC[C@H]3[C@@H]1CC[C@@H]2O" , GI50 reported as 13 µM

Entry "COc1ccc2cc(C(=O)/C=C/c3ccc(N(C)C)cc3)ccc2c1" , GI50 reported as 36.7 µM

What the record says about "[Cl][Hg][c]1ccc(Cl)s1" : GI50 is 1.54 µM

# compound "CCCc1cc(=O)n2c(C(=O)Nc3cccc(C(=O)OCC)c3)c(C(=O)Nc3ccc(F)cc3)sc2n1" ; its GI50 = 54.1 µM

The reported GI50 of the compound CC[C@@H](C(=O)[C@H](C)[C@H](O)[C@@H](C)[C@H]1O[C@H]([C@@H](CC)C(=O)N(CC)CC)CC[C@H]1C)C1O[C@]2(C=C[C@@H](O)[C@]3(CC[C@@](C)([C@H]4CC[C@](O)(CC)[C@H](C)O4)O3)O2)[C@H](C)C[C@@H]1C (stereo partly drawn) was 3.07 µM

Memo: "C[C@]12CC[C@@H]3c4cc(OC(F)F)c(OS(N)(=O)=O)cc4CC[C@H]3[C@@H]1CC[C@@H]2OS(N)(=O)=O" , reported GI50: 5.87 µM

GET /value?item= "COc1cc2ncnc(Nc3cccc(Cl)c3F)c2cc1OC(=O)N1CCN(C)C[C@H]1C" &field=GI50 returns > 41.1 µM

Lab note: CN1CCC2(CC1)NC(=O)c1c(c3ccc(Cl)c(Cl)c3n1C)C2C#N (stereo not drawn) gave GI50 of 2.12 µM

GI50 reported for this compound "CCCCCCCCCCCC(=O)N1CCN(C(C)=O)CC1" : 19.4 µM

GI50 reported for this compound "COc1cc2c(cc1Cc1cccc(Cl)c1F)c(=O)c(C(=O)O)cn2[C@@H](CO)C(C)C" : 3.23 µM

CCN1C(=O)N(CC)C2C1NN=c1s/c(=C\c3ccco3)c(=O)n12 (stereo not drawn) yielded GI50 of > 100 µM

Form: compound = "O=C(Nc1ccc(-n2cc(-c3ccncc3)c(-c3ccc(O)c(Cl)c3)n2)cc1)Nc1ccc(Cl)c(C(F)(F)F)c1" ; GI50 = 7.42 µM
